Tested on: K4 kissing-loop RNA reporter;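 note: bound reporter read as fluorescence of individual clusters on recovered sequencing chips by microscopy, with normalized cluster intensities fitted with a binding model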
Experiment: apparent KD of K4 kissing-loop reporter; higher = weaker reporter binding
Settings: Eterna round: R107; input ligand: arginine 13.2 mM
# apparent KD of K4 kissing-loop reporter values compiled below
The reply should contain only the number, in µM.

Completed entries (count: 8):
UCGGACGCGCACCUAGGCCAAUCCACUGCGAAGGAUAUGCGCGCCAGCAGAAGGUCGUUUUAUGAGUGAUGUUUAGAAACAGCGU [theeternabot_exclusion_KL_FMN_A_25]; 0.25
GAUAGUUAGAGAGAUACCAGCGAUACCUAGAUGGAAAGUGAUGUUCGCCAUCAAUUGCACCGCCCUUGGCAGCUCUCUCUUUGCU [theeternabot_exclusion_KL_Theo_B_37]; 0.763
UUCGAUCAGUGAUGUUGAUCAAUAGUCGAAGGAGCGCUAUAGAUAGCAGGUAGGUCGCGACUACAAGGUGUUAAGACACCUCGAA [Arg A SS t9]; 0.43
CGCAAGCAGCCAGUGAUGUUGGCCGCCUUGCGAGGACCGGUACGGCCGCCACUCGAAGGCGGCUACUGAUAAUCCGUCUAACGGA [KL-XTryp-A15]; 0.0854
UUUAUUUUCUGAGGAUAUCGUUUUACUGAAGUGAUGUUUCAGUAUUUUCAUAUUAUAUAUAAUUUUCGAGAAGGCAGUAUUAUUA [JR_Nu_SSFMNB_Sub027]; 0.0604
AGAGUACGAAAGUACUCCUCUACACACUGACGAGGACCGGUACGGCCGCCACUCGAGUUGAGUGAUGUUCGAUAGUGUGUAGAGA [Omei KL Tryp A SS C v3]; 0.0384
AAUAAGGUCGCCGAUACCAGCGCGGGCAGAGCAAAGCUCUGCCCGGUAGUGAUGUUACCGCGCCCUUGGCAGCGGUGGCACGACC [Omei KL Theo B SS C v6]; 0.0583
AAUAUCUAGUAUAUUUUUAAUAAAACAGAUACCAGUGAUAAUAGACACCCUUGGCAGCUGGUCGAGUGAUGUUCGUUUAUUUUAA [JR_SSTheophyA_Sub005]; 0.0795

Record UUUAUAAUGUCGGCCGCCACUGGAUUAAUAUUUGUAUAAUCUAGUUCAAAGUGAUGUUUUGAGUCCAGGACCGGGACAUUUGUUA [JR_ExcTryptoB_Sub003] . Reported apparent KD of K4 kissing-loop reporter: 0.49

Sample UAUAUAGUGACGGCCGCCACUAUAUUAAUGUUUUUGUUAGAGUGAUGUUUUGUUUUUUAAUUUUAUAGGACCGGGUUAUAUGUUA [xnxmullin] ; apparent KD of K4 kissing-loop reporter observed: 0.155

What the record says about GUGAGUGACGGAGGAUAUGCGAUAGAUGUAGGAAAAUUAGUGAUGUUAGUUAUGGUAGAGAUAGAAGUAGAAGGUUGGUGUGUGU [RHig 3/7] : apparent KD of K4 kissing-loop reporter is 0.394

UGACUGGACUGAAGGAGCGUGGAAGGAGCGUAAGUAGUGAUGUUGCUUACAGGUAGGUCGCCGCAGGUAGGUCGCAGUCUAGUCU has a reported apparent KD of K4 kissing-loop reporter of 0.0474

Consider GUACACUCUCGAGUGAUGUUCGGUAAUAGAGAGGAUAUCGCUUUUGCGAGAAGGCUCUGAAUGAGGAAACUCGUUCUGUGUGUAC [FMN A 20] . Its measured apparent KD of K4 kissing-loop reporter is 0.686

Data point: AGGUGAGAGUGAAGGAGCGAUCGCGCCAGUGAUGUUGGUGAGCAUGACGAAAGUCAUGCCGAUCAGGUAGGUCGCACUCUUACUC [Omei KL Arginine B SS B v3] ; apparent KD of K4 kissing-loop reporter = 0.421

Reference source for all entries: the supplement of paper PMC9170038
